Data origin: patent US5801182A

Exercise: for every item that follows, state its recorded CC50.
experiment: Viability of 293-EBNA cells (alamarBlue colorimetric assay); assay type: cell-based; details: human, 293-ebna cells; alamarBlue; FIGS. 18, 20, 21; read-out: LD50, 293-EBNA cells

Measured CC50 of CCCCCCCCCCCCCCCNCCCCCCCCCCCn1c(=O)c2c(ncn2C)n(C)c1=O [compound no. 4508] : < 10 µM

Measured CC50 of CCCCCCCCCCCCCNCCCCCCCCCCCn1c(=O)c2c(ncn2C)n(C)c1=O [compound 4507] : < 7 µM

Measured CC50 of CCCCCCNCCCCCCCCCCCn1c(=O)c2c(ncn2C)n(C)c1=O [compound no. 3580] : < 30 µM

Measured CC50 of CCCCCCCCCCCCNCCCCCCCCCCCn1c(=O)c2c(ncn2C)n(C)c1=O [compound no. 3563] : < 7 µM

Measured CC50 of CCCCCCCCCCNCCCCCCCCCCCn1c(=O)c2c(ncn2C)n(C)c1=O [compound 3581] : < 10 µM

Measured CC50 of CCCCCCCCCCCCCCCCNCCCCCCCCCCCn1c(=O)c2c(ncn2C)n(C)c1=O [compound 3584] : < 15 µM

Measured CC50 of CCCCCCCCCCCCCCNCCCCCCCCCCCn1c(=O)c2c(ncn2C)n(C)c1=O [compound 3582] : < 5 µM

Measured CC50 of CCCCCCCCNCCCCCCCCCCCn1c(=O)c2c(ncn2C)n(C)c1=O [compound no. 3556] : ~12.5 µM

Measured CC50 of CCCCCCCCCCCCN(C)CCCCCCCCCCCn1c(=O)c2c(ncn2C)n(C)c1=O [compound 3576] : < 15 µM
